Test Name: folding stability dG unfold (combined trypsin and chymotrypsin); higher = more stable
Assay Metric: folding stability dG unfold (kcal/mol)

- Monomer Sequence: "SAGGSAGGSAGGMLVDPSTNTVTINLPPNTTLTFNYPDSTLTVTVPANETLTVTFPLTSSAGGSAGGSAGGS [r10_464_JUSTAS]"
  Assay Metric: "folding stability dG unfold"
  Reported Value: 1.67
- Monomer Sequence: "SAGGSAGGSDKIVERLQKRFPNVRISNIQPTPDGVTIQIENPDGKEFTIPYDELEKHGIEIEPSAGGSAGGS [r12_3_TrROS]"
  Assay Metric: "folding stability dG unfold"
  Reported Value: 0.456
- Monomer Sequence: "SAGGSIEELAREKALEEHKKTGEKNYPFTFEFEIVSSYEFAPDGTPVASSEFPFKITLKFKLPPKKKSAGGS [r16_156_JUSTAS]"
  Assay Metric: "folding stability dG unfold"
  Reported Value: 2.43
- Monomer Sequence: "SAGGSAGGSMTFSSEEEAEAFIAQLPPDSEVEVEIKDPNTDKTTKYKIKVPPEQPVYSPKGVLSAGGSAGGS [r12_393_JUSTAS]"
  Assay Metric: "folding stability dG unfold"
  Reported Value: 1.2
- Monomer Sequence: "SAGGSAGGSAMVIEDPKTNKLIEVEKLPDGTYKVTIYDKKTGEKKTITMSKKDLEKLLKALSAGGSAGGSAG [r3_162_TrROS_Hall]"
  Assay Metric: "folding stability dG unfold"
  Reported Value: 4.81
- Monomer Sequence: "SAGMVIKVEVIYNGKKYTIEISEEQLKELLEKLKPGDEVEIEINGEKVLVRVEVVEPPEPSEEELKALKSAG [r5_669_TrROS_Hall]"
  Assay Metric: "folding stability dG unfold"
  Reported Value: 1.69
- Monomer Sequence: "SAGGSAGGSAGGGISEAAASGTPLLVTYTDESGNVTEVVVRPDSPVPLPGVVSAEVRLESAGGSAGGSAGGS [r10_700_JUSTAS]"
  Assay Metric: "folding stability dG unfold"
  Reported Value: 0.666

---

Test Name: folding stability dG unfold (combined trypsin and chymotrypsin); higher = more stable
Assay Metric: folding stability dG unfold (kcal/mol)

- Monomer Sequence: "SAGGSAGGSAVPFVLPDGYVLEVEPDPETGLYRIRVTSPDGRTYEFTAPPDVPLADIPVVIDDSAGGSAGGS [r12_261_TrMRF]"
  Unit String: "kcal/mol"
  Lt Gt Eq: "="
  Reported Value: 2.95
- Monomer Sequence: "SAGNIRIDVHVPPDGYYMIKIRFPGNGREANIMLPPNDPDKFKELAEEIAENLFEEGFPIEVDIEPIPPSAG [r5_815_TrROS]"
  Unit String: "kcal/mol"
  Lt Gt Eq: "="
  Reported Value: 1.89
- Monomer Sequence: "SAGSSETYSFKSPEEAKKKLKEEYGVSVEELPGNRVRINLVLDNKPVVVLIDTSTNLATVVSPEVVERKSAG [r14_402_JUSTAS]"
  Unit String: "kcal/mol"
  Lt Gt Eq: "="
  Reported Value: -0.257
- Monomer Sequence: "SAGGSMPPIVASVVEVRFYRFEEEDRERLEAEVTLKLKDGSTATIRLEFPDLSEEELLKTVEETLLSAGGSA [r2_26_JUSTAS]"
  Unit String: "kcal/mol"
  Lt Gt Eq: "="
  Reported Value: 2.31
- Monomer Sequence: "SAGGSAGGSTVTIEIPGFKTPEEIAKAIAEKTGKKVKEVKVEKDKKNKTYTITVTVDGKEITFSAGGSAGGS [r12_935_TrROS_Hall]"
  Unit String: "kcal/mol"
  Lt Gt Eq: "="
  Reported Value: 0.805
- Monomer Sequence: "SAGGSAGGSAGGMKVIPIYSPGKGSKEEIIELVKKKNPNVKKVEVTYNPEEDVATVTIESAGGSAGGSAGGS [r10_225_JUSTAS]"
  Unit String: "kcal/mol"
  Lt Gt Eq: "<"
  Reported Value: -1
- Monomer Sequence: "SAEEVEIEIEIVIKMSEEEAERLAKELAEELARELGAEIVDVEVEVVEVDGELYVRIRVKIRLPKEELESAG [r14_219_TrROS_Hall]"
  Unit String: "kcal/mol"
  Lt Gt Eq: "="
  Reported Value: 4.23

---

Test Name: folding stability dG unfold from chymotrypsin proteolysis; higher = more stable
Assay Metric: folding stability dG unfold

- Monomer Sequence: "SAMKFKKGAKIEIEVEKVEEKEIDGKTVAVYRMKIKIEVDGKKYEIEVEIYYDKETKEWKIVKVEIKEVSAG [r14_293_TrROS_Hall]"
  Assay Metric: "folding stability dG unfold"
  Reported Value: "3.13 kcal/mol"
- Monomer Sequence: "SMSYTVTVEYPDTGKTTTTPIPPDALEVSVSLSGPSTIRITITTDVNGATTTTTSTVTLPPPALPPSTLLSA [r9_1067_JUSTAS]"
  Assay Metric: "folding stability dG unfold"
  Reported Value: "0.927 kcal/mol"
- Monomer Sequence: "SAGGSAGGMYKVTITVTDPATGKTVATETLTLESEEEAKEYVEAVKKELPSSLTVSATITKVPESAGGSAGG [r6_690_JUSTAS]"
  Assay Metric: "folding stability dG unfold"
  Reported Value: "4.41 kcal/mol"
- Monomer Sequence: "SAGFYFRITEITVNPDAGKLTIRNPNGQEQEIPPGGKISIKMRFYRFNDNGGKPETFEMEHTIPIPPGDSAG [r14_366_TrROS]"
  Assay Metric: "folding stability dG unfold"
  Reported Value: "3.43 kcal/mol"
- Monomer Sequence: "SAGGMTTTTTLEVAPDTPYEAALAEIEAALAAAAAGRPVASSPVAARPGGARTLPLVVTDGAVTALGSAGGS [r8_7_JUSTAS]"
  Assay Metric: "folding stability dG unfold"
  Reported Value: "0.954 kcal/mol"
- Monomer Sequence: "SAGGKIKVTVEKEENGTYRVTVEITLPDGKKITITVTVPPGVKTEEEAKKLAEEKVKELLKKLGIKPSAGGS [r8_464_TrROS_Hall]"
  Assay Metric: "folding stability dG unfold"
  Reported Value: "4.27 kcal/mol"
- Monomer Sequence: "SADDDEEQKEKQKPKPQIPIKPVATYNFPDHPFEIWEIDPDNGRIIIRFWGNGWWYEMDPEDGEWEWYPSAG [r14_359_TrROS]"
  Assay Metric: "folding stability dG unfold"
  Reported Value: "2.26 kcal/mol"

---

Test Name: folding stability dG unfold from trypsin proteolysis; higher = more stable
Assay Metric: folding stability dG unfold

- Monomer Sequence: "SAGGSAGGSSFSVEVIENPDSDVILRKIHFDNFTVIPLFDPSTGKIVSVVVQFPDGSWYTFPLSAGGSAGGS [r12_563_TrMRF]"
  Reported Value: "2.18 kcal/mol"
- Monomer Sequence: "SIIRSPNGYWIVITVKVPEGAKPFPPGFEVQRDPEKGTLTIIMPMPPDDIRRLAEHPGVEIEKIEFIPWDSA [r9_827_TrROS]"
  Reported Value: "1.14 kcal/mol"
- Monomer Sequence: "SAMVVTYDPATGKITVNVTLYVEEPLTPEERAALAAAIKAALAAAHPDVDVTVTLHPAPSPEEVEKLAASAG [r14_406_JUSTAS]"
  Reported Value: "2.92 kcal/mol"
- Monomer Sequence: "SAGGSAGGSAGMTRTVTFTITDPNSSNTTTITVPTTSEQDVAAAKAALKAANPNVTITLTSAGGSAGGSAGG [r11_233_JUSTAS]"
  Reported Value: "0.3 kcal/mol"
- Monomer Sequence: "SAGGSAGGSAGMTLEELLRKAKPGQTLTLRVRVVERNEDGSLSEREFTFTFRLELKPEDLSAGGSAGGSAGG [r11_347_TrROS_Hall]"
  Reported Value: "2.55 kcal/mol"
- Monomer Sequence: "SAGGSAGGSAGGSPKTILLEVNGRLVLVTVKDGKVEIRDLENPNKTYTFPPGAKILIVDSAGGSAGGSAGGS [r4_321_TrROS_Hall]"
  Reported Value: "1.61 kcal/mol"
- Monomer Sequence: "SAGGSAGGSAGGLSPGDEIKIRIMIFYRDPGSGNMRPIQPFPITIKIEPPPPKPKDPNNNSAGGSAGGSAGG [r7_522_TrROS]"
  Reported Value: "2.27 kcal/mol"

---

Below is a list of entries, each paired with its recorded folding stability dG unfold value.
Test Name: folding stability dG unfold from chymotrypsin proteolysis; higher = more stable

- Monomer Sequence: "SAGGSAGGMTLKIKVAPGAVIRIYNKDGELIEEIEVEEGEEVEIEIELPEEDLENLRIEILPAPSAGGSAGG [r6_471_TrROS_Hall]"
  folding stability dG unfold, kcal/mol: 4.6
- Monomer Sequence: "SAGGLKIDEFERSPNQGRYYVTIKIYHPDNGKPWDIEVPFNPDNGRWSAEEIAKTIAKKFKLPPGFTISAGG [r13_362_TrROS]"
  folding stability dG unfold, kcal/mol: 2.3
- Monomer Sequence: "SAGGSATAEELADEIANYMADRHGMEVKKIEITDVDNDRVVFRAEVEMPNPNGKKHTHPFTIEIPVSAGGSA [r15_276_TrROS]"
  folding stability dG unfold, kcal/mol: 0.303
- Monomer Sequence: "SAGGSAGMMPTKITVTLTLPPDAPDVEAVAERLAAELGVEVSNAEVLEVRRLPDGSREVVIELTLLSAGGSA [r15_654_JUSTAS]"
  folding stability dG unfold, kcal/mol: 4.18
- Monomer Sequence: "SAGGIRIKPGQILVIDIERPTGNERKIIIPMDDPEEVIEQLGFPPENFRIKDIEVVPMPPEQAKDFLESAGG [r13_850_TrROS]"
  folding stability dG unfold, kcal/mol: 0.585
- Monomer Sequence: "SGKVVATVPLPDGTVITVEVSPDNTVRVTVVRYRLVPNSTAPAVEVRTYTFPLPPGNPPSIQDVLDRVLSSA [r9_614_TrMRF]"
  folding stability dG unfold, kcal/mol: 4.53
- Monomer Sequence: "SAGGSKMPPGYKMIPIEIPFRTPEDLEQAINFAEELAREGFTIIDIDVEIPEGDNYRVEFHIMLPYSAGGSA [r2_350_TrROS]"
  folding stability dG unfold, kcal/mol: 2.6

Entry source: the supplement of paper PMC12764529
